Reported kon values follow for various binders
# tested.target: C. jejuni (strain 81-176) flagella (Campylobacter jejuni strain 81-176)
# method.summary: SPR (Biacore 3000), single-cycle kinetics, […]
recorded.endpoint: kon (M⁻¹ s⁻¹)

binder	recorded.endpoint	units.symbol	measurement
FlagV1F23MDSB (VHH) VHH: QVQLVESGGGLVQAGGSRRLSCATSGLTFRNFHMAWFRQVAGKEREVVCAISWSRDRQYYPDPVKGRFTCTRDNAKNTVYLQMNSLKPEDTAVYYCAARTASASGDWYKGSYQYWGQGTQVTVSS	kon	M⁻¹ s⁻¹	165000
FlagV1MDSB (VHH) VHH: QVKLEESGGGLVQAGGSRRLSCATSGLTFRNFHMAWFRQVAGKEREVVCAISWSRDRQYYPDPVKGRFTCTRDNAKNTVYLQMNSLKPEDTAVYYCAARTASASGDWYKGSYQYWGQGTQVTVSS	kon	M⁻¹ s⁻¹	153000
FlagV1F23M (VHH) VHH: QVQLVESGGGLVQAGGSRRLSCATSGLTFRNFHMAWFRQVAGKEREVVAAISWSRDRQYYPDPVKGRFTITRDNAKNTVYLQMNSLKPEDTAVYYCAARTASASGDWYKGSYQYWGQGTQVTVSS	kon	M⁻¹ s⁻¹	229000
FlagV1M (VHH) VHH: QVKLEESGGGLVQAGGSRRLSCATSGLTFRNFHMAWFRQVAGKEREVVAAISWSRDRQYYPDPVKGRFTITRDNAKNTVYLQMNSLKPEDTAVYYCAARTASASGDWYKGSYQYWGQGTQVTVSS	kon	M⁻¹ s⁻¹	236000

Cited source: patent US20180142000A1
